Assay: Human liver microsome stability
Assay type: in vitro ADME
Conditions: human liver microsomes, 37° C., 45 minutes
Attribute: half-life

The examples below pair each entry with its known result.
[
  {
    "Molecule": "CC(C)OC(=O)N[C@H]1CC[C@H](c2ncc(-c3ccc(NC(=O)NCc4ccccn4)cc3S(=O)(=O)NC(C)(C)C)s2)CC1",
    "half-life": "20.5 min"
  },
  {
    "Molecule": "CC(C)OC(=O)Nc1ccc(-c2cnc([C@H]3CC[C@H](NC(=O)OC(C)C)CC3)s2)c(S(=O)(=O)NC(C)(C)C)c1 [Ex. 67A]",
    "half-life": "> 300 min"
  },
  {
    "Molecule": "CC(C)OC(=O)N[C@H]1CC[C@H](c2ncc(-c3ccc(NC(=O)NCc4ncccc4F)cc3S(=O)(=O)NC(C)(C)C)s2)CC1",
    "half-life": "22.4 min"
  }
]

Here is the next item to consider.
Prompt line: // Input: CC(C)OC(=O)N[C@H]1CC[C@H](c2ncc(-c3ccc(NC(=O)NCc4ccccc4)cc3S(=O)(=O)NC(C)(C)C)s2)CC1 [Ex. 66A] . Output its half-life only.
Response line: 77.6 min

====

Test: Pharmacokinetic (PK) study, plasma by LC-MS
Assay type: in vivo, Rat
Details: Rat Male, @ 5 mg/kg; po @ 80 mg/kg (30% PEG400, 10% Vitamin E TPGS in water)
Measurement Name: F (%) @ 5 mg/kg
Provide only the numeric value, understood in %.

Please review the entries below; each comes with its answer.
[
  {
    "Molecule": "CC(C)OC(=O)N[C@H]1CC[C@H](c2ncc(-c3ccc(NC(=O)NCc4ccccn4)cc3S(=O)(=O)NC(C)(C)C)s2)CC1",
    "U": "%",
    "F (%) @ 5 mg/kg": 3.69
  },
  {
    "Molecule": "CC(C)OC(=O)Nc1ccc(-c2cnc([C@H]3CC[C@H](NC(=O)OC(C)C)CC3)s2)c(S(=O)(=O)NC(C)(C)C)c1 [Ex. 67A]",
    "U": "%",
    "F (%) @ 5 mg/kg": 46.9
  },
  {
    "Molecule": "CC(C)OC(=O)N[C@H]1CC[C@H](c2ncc(-c3ccc(NC(=O)NCc4ncccc4F)cc3S(=O)(=O)NC(C)(C)C)s2)CC1",
    "U": "%",
    "F (%) @ 5 mg/kg": 1.49
  }
]

Now look at this entry.
Prompt line: Please give measured F (%) @ 5 mg/kg of the following entry: CC(C)OC(=O)N[C@H]1CC[C@H](c2ncc(-c3ccc(NC(=O)NCc4ccccc4)cc3S(=O)(=O)NC(C)(C)C)s2)CC1 [Ex. 66A]
Response line: 2.55

====

Reported values of half-life for individual entries
Assay: Pharmacokinetic (PK) study, plasma by LC-MS
Format: in vivo, Rat
Details: plasma; Rat Male, po @ 80 mg/kg (30% PEG400, 10% Vitamin E TPGS in water)
Numeric answer only, unit h assumed.

Prompt line: Report measured half-life; entry is CC(C)OC(=O)N[C@H]1CC[C@H](c2ncc(-c3ccc(NC(=O)NCc4ccccc4)cc3S(=O)(=O)NC(C)(C)C)s2)CC1 [Ex. 66A]
Response line: 1.86

====

Assay: Human liver microsome stability
Format: in vitro ADME
Conditions: human liver microsomes, 37° C., 45 minutes; read-out: Clearance (μg/min/mg)
Experimental: The stability of the claimed compounds was determined in the presences of human liver microsomes. The compounds were incubated with the microsomes at 37° C. for 45 minutes. Samples were analyzed using LC-MS/MS. Data analysis included half-life, clearance rate, and the percentage of hepatic blood flow (% QH) for each of the compounds in the different species.
Recorded microsomal CLint values for a group of compounds are listed next.
Give a bare numeral; the unit µL/min/mg is implied.

[
  {
    "Compound": "CC(C)OC(=O)N[C@H]1CC[C@H](c2ncc(-c3ccc(NC(=O)NCc4ncccc4F)cc3S(=O)(=O)NC(C)(C)C)s2)CC1",
    "microsomal CLint (µL/min/mg)": 61.9
  },
  {
    "Compound": "CC(C)OC(=O)N[C@H]1CC[C@H](c2ncc(-c3ccc(NC(=O)NCc4ccccn4)cc3S(=O)(=O)NC(C)(C)C)s2)CC1",
    "microsomal CLint (µL/min/mg)": 68
  }
]

In the following, a different compound is considered.
Prompt line: # return recorded microsomal CLint for entry CC(C)OC(=O)N[C@H]1CC[C@H](c2ncc(-c3ccc(NC(=O)NCc4ccccc4)cc3S(=O)(=O)NC(C)(C)C)s2)CC1 [Ex. 66A]
Response line: 18.2
